# Tested on: 885512-296-R-J2-PDC complex spheroid viability;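 note: spheroids exposed to agents for 7 days before viability read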
# Measurement Description: Anticancer human tumor 885512-296-R-J2-PDC patient-derived breast carcinoma cell line growth inhibition
# Protocol Conditions: curve of first compound; second compound 10 µM
pIC50: −log10 of the molar value.
As shown below, each of these compounds has a reported pIC50 value.

[
  {
    "Compound": "CC1COCCN1c1cc(-c2ccnn2C)c2ccnc(-c3ccn[nH]3)c2n1 (centres undefined) + NC1CC1c1ccc(-c2cccc(O)c2)cc1",
    "pIC50": "> 8.50"
  },
  {
    "Compound": "Cn1ncnc1C1c2n[nH]c(=O)c3cc(F)cc(c23)NC1c1ccc(F)cc1 (centres undefined) + NC1CC1c1ccc(-c2cccc(O)c2)cc1",
    "pIC50": 7.81
  },
  {
    "Compound": "NS(=O)(=O)OCC1CC(n2ccc3c(NC4CCc5ccccc54)ncnc32)CC1O (centres undefined) + NC1CC1c1ccc(-c2cccc(O)c2)cc1",
    "pIC50": "> 8.02"
  },
  {
    "Compound": "CC(C)CC(NC(=O)C(Cc1ccccc1)NC(=O)c1cnccn1)B(O)O (centres undefined) + NC1CC1c1ccc(-c2cccc(O)c2)cc1",
    "pIC50": "> 9.50"
  }
]
